target: GSK3B (human) (UniProt P49841); test: radiometric filter-binding kinase assay; conditions: compound 10.0 µM; ATP 100 µM
Sequence (P49841 whole entry, looked up): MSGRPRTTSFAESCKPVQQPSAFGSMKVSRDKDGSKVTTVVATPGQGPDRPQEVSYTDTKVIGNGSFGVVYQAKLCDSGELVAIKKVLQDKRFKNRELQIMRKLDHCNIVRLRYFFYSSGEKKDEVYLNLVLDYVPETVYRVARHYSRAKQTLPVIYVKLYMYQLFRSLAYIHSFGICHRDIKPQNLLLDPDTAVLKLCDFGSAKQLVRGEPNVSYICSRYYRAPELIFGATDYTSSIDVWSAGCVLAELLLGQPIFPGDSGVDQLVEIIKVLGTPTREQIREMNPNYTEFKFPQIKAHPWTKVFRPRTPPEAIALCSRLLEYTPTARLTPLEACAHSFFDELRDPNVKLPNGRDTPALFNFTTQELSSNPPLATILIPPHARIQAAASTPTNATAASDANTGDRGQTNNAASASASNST
Note to self: use Y only for residual activity readings below 80%; a reading exactly at 80% still gets N.

1) O=C1Cc2c([nH]c3ccc([N+](=O)[O-])cc23)-c2ccccc2N1: Y
2) CC(C)[C@H](CO)Nc1nc(Nc2cccc(Cl)c2)c2ncn(C(C)C)c2n1: N
3) O=C1c2ccccc2-c2n[nH]c3cccc1c23: Y
4) Nc1ncnc2c1cnn2-c1ccccc1: N
5) CN(C)S(=O)(=O)c1ccc2c(c1)/C(=C/c1cc3c([nH]1)CCCC3)C(=O)N2: N
6) Cc1ccc(-c2nn(C(C)(C)C)c3ncnc(N)c23)cc1: N
7) COC(=O)[C@@]1(OC)C[C@@H]2O[C@]1(C)n1c3ccccc3c3c4c(c5c6ccccc6n2c5c31)C(=O)N(C)C4: Y
8) CC[C@@H](CO)Nc1nc(NCc2ccccc2)c2ncn(C(C)C)c2n1: N
9) O=C1Cc2c([nH]c3ccc(Br)cc23)-c2ccccc2N1: Y
10) O=C1Nc2ccccc2/C1=C1\Nc2ccccc2\C1=N/O: Y
11) CC(C)(C)n1nc(-c2ccc(Cl)cc2)c2c(N)ncnc21: N

###

target: MAPKAPK5 (human) (UniProt Q8IW41); assay: radiometric filter-binding kinase assay; settings: compound 10.0 µM; ATP 100 µM
Sequence (Q8IW41 whole entry, looked up): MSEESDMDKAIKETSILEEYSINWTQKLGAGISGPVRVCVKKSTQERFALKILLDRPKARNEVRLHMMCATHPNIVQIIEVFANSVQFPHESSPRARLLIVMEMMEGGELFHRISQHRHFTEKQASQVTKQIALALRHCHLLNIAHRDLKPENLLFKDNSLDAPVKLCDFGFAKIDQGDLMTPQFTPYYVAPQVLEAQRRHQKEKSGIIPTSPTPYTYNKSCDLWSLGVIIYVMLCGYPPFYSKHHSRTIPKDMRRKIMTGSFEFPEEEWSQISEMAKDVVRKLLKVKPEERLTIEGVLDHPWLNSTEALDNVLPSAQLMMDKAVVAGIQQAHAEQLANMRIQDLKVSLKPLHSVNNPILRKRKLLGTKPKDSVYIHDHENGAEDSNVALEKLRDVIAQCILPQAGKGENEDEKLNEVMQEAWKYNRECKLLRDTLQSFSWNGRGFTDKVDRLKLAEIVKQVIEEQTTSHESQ
Assign 1 to entries whose residual activity meets or exceeds 80%; assign -1 to the rest.

1) O=C(O[C@@H]1Cc2c(O)cc(O)cc2O[C@@H]1c1cc(O)c(O)c(O)c1)c1cc(O)c(O)c(O)c1: -1
2) O=C1Nc2ccccc2/C1=C1\Nc2ccccc2\C1=N/O: -1
3) O=C1Cc2c([nH]c3ccc(Br)cc23)-c2ccccc2N1: 1
4) CC(C)[C@H](CO)Nc1nc(Nc2cccc(Cl)c2)c2ncn(C(C)C)c2n1: -1
5) CC[C@@H](CO)Nc1nc(NCc2ccccc2)c2ncn(C(C)C)c2n1: 1
6) CC(C)(C)n1nc(-c2ccc(Cl)cc2)c2c(N)ncnc21: 1
7) Cc1ccc(-c2nn(C(C)(C)C)c3ncnc(N)c23)cc1: 1
8) COC(=O)[C@@]1(OC)C[C@@H]2O[C@]1(C)n1c3ccccc3c3c4c(c5c6ccccc6n2c5c31)C(=O)N(C)C4: 1
9) O=C1c2ccccc2-c2n[nH]c3cccc1c23: -1
10) CN(C)S(=O)(=O)c1ccc2c(c1)/C(=C/c1cc3c([nH]1)CCCC3)C(=O)N2: 1
11) Nc1ncnc2c1cnn2-c1ccccc1: 1

###

molecular target: MAPK11 (human); assay: radiometric filter-binding kinase assay; conditions: compound 10.0 µM; ATP 100 µM
test_readout: residual activity (%)

1) CC[C@@H](CO)Nc1nc(NCc2ccccc2)c2ncn(C(C)C)c2n1: 104
2) CC(C)[C@H](CO)Nc1nc(Nc2cccc(Cl)c2)c2ncn(C(C)C)c2n1: 117
3) CN(C)S(=O)(=O)c1ccc2c(c1)/C(=C/c1cc3c([nH]1)CCCC3)C(=O)N2: 90
4) O=C1Cc2c([nH]c3ccc(Br)cc23)-c2ccccc2N1: 108
5) Nc1ncnc2c1cnn2-c1ccccc1: 84
6) O=C1c2ccccc2-c2n[nH]c3cccc1c23: 75
7) COC(=O)[C@@]1(OC)C[C@@H]2O[C@]1(C)n1c3ccccc3c3c4c(c5c6ccccc6n2c5c31)C(=O)N(C)C4: 100
8) Cc1ccc(-c2nn(C(C)(C)C)c3ncnc(N)c23)cc1: 22
9) O=C1Nc2ccccc2/C1=C1\Nc2ccccc2\C1=N/O: 45
10) CC(C)(C)n1nc(-c2ccc(Cl)cc2)c2c(N)ncnc21: 26
11) O=C1Cc2c([nH]c3ccc([N+](=O)[O-])cc23)-c2ccccc2N1: 64
12) O=C(O[C@@H]1Cc2c(O)cc(O)cc2O[C@@H]1c1cc(O)c(O)c(O)c1)c1cc(O)c(O)c(O)c1: 87
